Target: HiBit-WIZ fusion protein (Homo sapiens, UniProt O95785+Q96SW2)
Sequence (O95785 whole entry, the tested form may be a part): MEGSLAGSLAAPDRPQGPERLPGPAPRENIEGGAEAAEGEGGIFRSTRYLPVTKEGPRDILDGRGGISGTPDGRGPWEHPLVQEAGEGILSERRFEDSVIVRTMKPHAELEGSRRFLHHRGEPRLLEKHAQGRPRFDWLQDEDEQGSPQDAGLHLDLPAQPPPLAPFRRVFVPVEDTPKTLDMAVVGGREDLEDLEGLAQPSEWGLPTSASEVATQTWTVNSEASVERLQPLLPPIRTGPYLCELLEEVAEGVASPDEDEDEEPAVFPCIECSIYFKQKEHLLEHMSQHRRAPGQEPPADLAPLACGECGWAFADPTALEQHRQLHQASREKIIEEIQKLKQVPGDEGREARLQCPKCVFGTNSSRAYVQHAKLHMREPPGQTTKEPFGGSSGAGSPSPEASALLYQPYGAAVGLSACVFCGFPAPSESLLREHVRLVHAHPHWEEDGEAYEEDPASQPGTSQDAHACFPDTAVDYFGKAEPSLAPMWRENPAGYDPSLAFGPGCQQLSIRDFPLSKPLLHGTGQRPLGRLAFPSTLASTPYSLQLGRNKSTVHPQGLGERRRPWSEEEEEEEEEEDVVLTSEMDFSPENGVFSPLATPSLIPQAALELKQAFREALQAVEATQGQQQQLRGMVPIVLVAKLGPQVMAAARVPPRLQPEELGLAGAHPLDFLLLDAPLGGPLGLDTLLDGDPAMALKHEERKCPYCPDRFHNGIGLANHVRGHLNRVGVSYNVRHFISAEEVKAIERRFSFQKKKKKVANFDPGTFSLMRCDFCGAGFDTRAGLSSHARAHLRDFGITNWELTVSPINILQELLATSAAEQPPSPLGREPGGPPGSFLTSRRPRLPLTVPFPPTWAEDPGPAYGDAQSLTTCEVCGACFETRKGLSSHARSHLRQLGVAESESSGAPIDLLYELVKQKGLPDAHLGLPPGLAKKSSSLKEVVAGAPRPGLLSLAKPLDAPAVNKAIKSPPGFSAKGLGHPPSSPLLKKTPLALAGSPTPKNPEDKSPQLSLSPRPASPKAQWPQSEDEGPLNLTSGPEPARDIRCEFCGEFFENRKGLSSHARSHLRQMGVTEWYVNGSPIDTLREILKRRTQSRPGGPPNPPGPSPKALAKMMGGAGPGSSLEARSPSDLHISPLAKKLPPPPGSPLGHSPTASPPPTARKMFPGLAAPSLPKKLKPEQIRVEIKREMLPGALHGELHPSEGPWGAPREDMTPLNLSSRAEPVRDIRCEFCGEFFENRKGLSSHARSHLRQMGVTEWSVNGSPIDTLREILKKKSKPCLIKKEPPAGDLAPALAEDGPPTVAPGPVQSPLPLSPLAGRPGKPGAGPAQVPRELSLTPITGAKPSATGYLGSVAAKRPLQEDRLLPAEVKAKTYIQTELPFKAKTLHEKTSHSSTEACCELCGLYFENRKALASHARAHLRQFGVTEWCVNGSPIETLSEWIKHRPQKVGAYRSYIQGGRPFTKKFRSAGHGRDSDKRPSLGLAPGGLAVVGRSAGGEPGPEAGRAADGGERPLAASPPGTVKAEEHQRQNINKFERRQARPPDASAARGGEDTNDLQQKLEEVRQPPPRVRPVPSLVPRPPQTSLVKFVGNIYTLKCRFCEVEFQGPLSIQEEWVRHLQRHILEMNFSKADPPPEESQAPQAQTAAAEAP
Sequence (Q96SW2 whole entry, the tested form may be a part): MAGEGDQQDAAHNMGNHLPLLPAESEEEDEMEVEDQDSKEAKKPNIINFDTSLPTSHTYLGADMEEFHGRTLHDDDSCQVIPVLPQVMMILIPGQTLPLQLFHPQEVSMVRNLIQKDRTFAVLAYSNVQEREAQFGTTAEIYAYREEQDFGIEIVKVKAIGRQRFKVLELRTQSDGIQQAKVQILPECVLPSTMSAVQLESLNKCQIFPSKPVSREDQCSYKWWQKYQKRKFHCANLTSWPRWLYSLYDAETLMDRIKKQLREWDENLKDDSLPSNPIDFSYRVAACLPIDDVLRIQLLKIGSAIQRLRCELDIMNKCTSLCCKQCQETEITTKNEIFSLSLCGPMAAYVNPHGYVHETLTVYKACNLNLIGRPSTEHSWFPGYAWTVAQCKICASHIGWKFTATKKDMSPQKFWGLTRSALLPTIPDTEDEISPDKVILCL
Sequence (Q16531 whole entry partner, the tested form may be a part): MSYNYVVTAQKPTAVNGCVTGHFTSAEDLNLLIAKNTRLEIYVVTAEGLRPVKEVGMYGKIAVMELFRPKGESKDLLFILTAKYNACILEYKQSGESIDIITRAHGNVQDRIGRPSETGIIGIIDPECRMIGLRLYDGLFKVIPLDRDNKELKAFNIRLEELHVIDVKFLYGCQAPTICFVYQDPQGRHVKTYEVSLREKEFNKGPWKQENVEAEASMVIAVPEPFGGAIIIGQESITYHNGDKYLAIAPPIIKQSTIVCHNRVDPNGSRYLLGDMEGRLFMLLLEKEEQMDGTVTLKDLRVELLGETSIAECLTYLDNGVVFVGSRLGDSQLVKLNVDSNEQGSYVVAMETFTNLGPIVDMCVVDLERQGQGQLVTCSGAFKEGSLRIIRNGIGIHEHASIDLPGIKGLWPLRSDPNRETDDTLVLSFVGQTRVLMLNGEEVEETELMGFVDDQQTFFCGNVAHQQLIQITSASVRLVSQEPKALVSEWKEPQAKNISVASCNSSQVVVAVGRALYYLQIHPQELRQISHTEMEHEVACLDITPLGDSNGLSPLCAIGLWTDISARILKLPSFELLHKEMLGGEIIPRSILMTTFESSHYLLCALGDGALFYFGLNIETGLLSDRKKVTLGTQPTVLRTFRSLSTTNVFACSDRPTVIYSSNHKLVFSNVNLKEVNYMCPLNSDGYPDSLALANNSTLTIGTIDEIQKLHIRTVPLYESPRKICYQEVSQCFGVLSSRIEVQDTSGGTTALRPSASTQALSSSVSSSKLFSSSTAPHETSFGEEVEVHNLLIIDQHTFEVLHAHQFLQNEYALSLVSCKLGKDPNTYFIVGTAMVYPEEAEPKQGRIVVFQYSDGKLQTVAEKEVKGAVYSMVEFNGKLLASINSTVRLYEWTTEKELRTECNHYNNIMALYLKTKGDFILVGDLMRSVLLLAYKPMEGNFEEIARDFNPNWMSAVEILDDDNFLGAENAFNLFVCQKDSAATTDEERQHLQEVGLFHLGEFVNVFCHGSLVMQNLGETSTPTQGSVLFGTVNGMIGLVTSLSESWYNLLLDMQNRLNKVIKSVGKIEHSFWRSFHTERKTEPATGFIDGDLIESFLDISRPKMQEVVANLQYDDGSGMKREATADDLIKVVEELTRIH
Assay: Quantification of WIZ protein levels in HiBit tag fusion protein assay (WIZ HiBit assay in 293T cells)
Type: cell-based
Conditions: WIZ HiBit assay in 293T cells; 10-point, 5-fold dose response, highest concentration 25 μM, about 18 hours; read-out: WIZ AC50
measurement_kind: DC50 (nM)
Answer with a number only, understood to be in nM.

// below: answered molecules
# molecule, measurement_kind, measured_value
measured = [
    ("O=C1CCC(N2Cc3cc(OC[C@@H]4CCCCN4Cc4n[nH]c5ccc(Oc6cccnc6)cc45)ccc3C2=O)C(=O)N1 (stereo partly drawn) [Compound I-50af]", "DC50", 21100),
    ("COc1cc(CN2CCCC[C@@H]2COc2ccc3c(c2)CN(C2CCC(=O)NC2=O)C3=O)ccc1C (stereo partly drawn) [Compound I-50eu]", "DC50", 3),
    ("O=C1CCC(N2Cc3cc(OC[C@@H]4CCCCN4Cc4cccc(N5CCOCC5)n4)ccc3C2=O)C(=O)N1 (stereo partly drawn) [Compound I-50bo]", "DC50", 20800),
    ("N#Cc1ccccc1CN1CCCC[C@@H]1COc1ccc2c(c1)CN(C1CCC(=O)NC1=O)C2=O (stereo partly drawn) [Compound I-50dz]", "DC50", 3270),
]

// query What reported DC50 corresponds to CC(C)(C)OC(=O)N1CCN(c2ccccc2CN2CCCC[C@@H]2COc2ccc3c(c2)CN(C2CCC(=O)NC2=O)C3=O)CC1 (stereo partly drawn) on HiBit-WIZ fusion protein (Homo sapiens, UniProt O95785+Q96SW2)?
// result 55

// query What reported DC50 corresponds to O=C1CCC(N2Cc3cc(OC[C@H]4CCCCN4Cc4ccccc4N4CCOCC4)ccc3C2=O)C(=O)N1 (stereo partly drawn) on HiBit-WIZ fusion protein (Homo sapiens, UniProt O95785+Q96SW2)?
// result 72

// query What reported DC50 corresponds to Cc1noc(-c2ccc(C(=O)N3CCCC[C@H]3COc3ccc4c(c3)CN(C3CCC(=O)NC3=O)C4=O)cc2)n1 (stereo partly drawn) [Compound I-72ar] on HiBit-WIZ fusion protein (Homo sapiens, UniProt O95785+Q96SW2)?
// result 2570

###

// reported remaining activity at up to 25 µM per item
Target: HiBit-WIZ fusion protein (Homo sapiens, UniProt O95785+Q96SW2)
Test: Quantification of WIZ protein levels in HiBit tag fusion protein assay (WIZ HiBit assay in 293T cells)
Type: cell-based
Conditions: HEK-293T, DMSO-normalized, curve-fitted percentage of WIZ-HiBit remaining at 25 uM; 293T cells; read-out: WIZ Amax
Answer with a number only, understood to be in %.

# compound, remaining activity at up to 25 µM (%)
records = [
    ("CC(C)Oc1ccccc1C(=O)N1CCCC[C@H]1COc1ccc2c(c1)CN(C1CCC(=O)NC1=O)C2=O (stereo partly drawn) [Compound I-72jy]", 88.7),
    ("COC(=O)c1nn(-c2cccc(C(F)(F)F)c2)cc1CN1CCCC[C@@H]1COc1ccc2c(c1)CN(C1CCC(=O)NC1=O)C2=O (stereo partly drawn) [Compound I-50dc]", 60.2),
    ("CCN1CCCC(C)(C)C1COc1ccc2c(c1)CN(C1CCC(=O)NC1=O)C2=O (single isomer, unassigned)", 73.6),
    ("C[C@H](CC(=O)N1CCCC[C@H]1COc1ccc2c(c1)CN(C1CCC(=O)NC1=O)C2=O)c1ccccc1 (stereo partly drawn) [Compound I-72gu]", 99.8),
    ("O=C1CCC(N2Cc3cc(OC[C@@H]4CCCCN4C(=O)c4ccccc4Cn4cncn4)ccc3C2=O)C(=O)N1 (stereo partly drawn) [Compound I-72jx]", 93.9),
    ("O=C1CCC(N2Cc3cc(OC[C@H]4CCCCN4Cc4ccnc5[nH]ccc45)ccc3C2=O)C(=O)N1 (stereo partly drawn) [Compound I-50dk]", 13),
    ("CC(C)n1cc(C(=O)N2CCCC[C@H]2COc2ccc3c(c2)CN(C2CCC(=O)NC2=O)C3=O)cn1 (stereo partly drawn) [Compound I-72dg]", 78.9),
    ("Cc1csc(CN2CCCC[C@@H]2COc2ccc3c(c2)CN(C2CCC(=O)NC2=O)C3=O)n1 (stereo partly drawn)", 34.9),
]

As a next step, examine the compound that follows.
// query Report remaining activity at up to 25 µM for COc1cc(C(=O)N2CCCC[C@H]2COc2ccc3c(c2)CN(C2CCC(=O)NC2=O)C3=O)c(F)cn1 (stereo partly drawn) [Compound I-72gn] please.
// result 73.6

###

Biological target: HiBit-WIZ fusion protein (Homo sapiens, UniProt O95785+Q96SW2)
Test: Quantification of WIZ protein levels in HiBit tag fusion protein assay (WIZ HiBit assay in 293T cells)
Format: cell-based
Conditions: HEK-293T, DMSO-normalized, curve-fitted percentage of WIZ-HiBit remaining at 25 uM; 293T cells; read-out: WIZ Amax
// reported remaining activity at up to 25 µM per item

// below: answered molecules
# molecule, measured_on, remaining activity at up to 25 µM
data = [
    ("O=C1CCC(N2Cc3cc(OC[C@@H]4CCCCN4C(=O)[C@@H]4CCCCN4C4CC4)ccc3C2=O)C(=O)N1 (stereo partly shown) [Compound I-72f]", "HiBit-WIZ fusion protein (Homo sapiens, UniProt O95785+Q96SW2)", "99.1%"),
    ("O=C1CCC(N2Cc3cc(OC[C@H]4CCCCN4Cc4ccc[nH]c4=O)ccc3C2=O)C(=O)N1 (stereo partly shown) [Compound I-50dp]", "HiBit-WIZ fusion protein (Homo sapiens, UniProt O95785+Q96SW2)", "34.5%"),
    ("CN1CCOc2cc(C(=O)N3CCCC[C@H]3COc3ccc4c(c3)CN(C3CCC(=O)NC3=O)C4=O)cnc21 (stereo partly shown) [Compound I-72ij]", "HiBit-WIZ fusion protein (Homo sapiens, UniProt O95785+Q96SW2)", "31.3%"),
]

As a next step, examine the molecule that follows.
// query Report remaining activity at up to 25 µM for O=C1CCC(N2Cc3cc(OC[C@@H]4CCCCN4C(=O)c4ncn(-c5ccccc5)n4)ccc3C2=O)C(=O)N1 (stereo partly shown) [Compound I-72dt] please.
// result 52.8%

###

Molecular target: HiBit-WIZ fusion protein (Homo sapiens, UniProt O95785+Q96SW2)
Test: Quantification of WIZ protein levels in HiBit tag fusion protein assay (WIZ HiBit assay in 293T cells)
Assay type: cell-based
Conditions: WIZ HiBit assay in 293T cells; 10-point, 5-fold dose response, highest concentration 25 μM, about 18 hours; read-out: WIZ AC50
// reported DC50 per item
Answer with a number only, understood to be in nM.

# compound, DC50, nM
rows = [
    ("O=C1CCC(N2Cc3cc(OC[C@@H]4CCCCN4Cc4cccc(N5CCCC5)c4)ccc3C2=O)C(=O)N1 (stereo partly shown) [Compound I-50aa]", 412),
    ("O=C1CCC(N2Cc3cc(OC[C@H]4CCCCN4Cc4ccc(N5CCN(C6CC6)CC5)cc4)ccc3C2=O)C(=O)N1 (stereo partly shown)", 0.73),
    ("O=C1CCC(N2Cc3cc(OC[C@H]4CCCCN4CC4CC4)ccc3C2=O)C(=O)N1 (stereo partly shown)", 32),
]

As a next step, examine the compound that follows.
// query What reported DC50 corresponds to COC(=O)c1ccc(Oc2ccc(CN3CCCC[C@@H]3COc3ccc4c(c3)CN(C3CCC(=O)NC3=O)C4=O)cc2)cc1 (stereo partly shown) [Compound I-50bh] on HiBit-WIZ fusion protein (Homo sapiens, UniProt O95785+Q96SW2)?
// result 5

###

// reported remaining activity at up to 25 µM per item
Molecular target: HiBit-WIZ fusion protein (Homo sapiens, UniProt O95785+Q96SW2)
Assay: Quantification of WIZ protein levels in HiBit tag fusion protein assay (WIZ HiBit assay in 293T cells)
Format: cell-based
Details: HEK-293T, DMSO-normalized, curve-fitted percentage of WIZ-HiBit remaining at 25 uM; 293T cells; read-out: WIZ Amax
Answer with a number only, understood to be in %.

// query Report remaining activity at up to 25 µM for CC#CCCOc1ccc(C(=O)N2CCCC[C@H]2COc2ccc3c(c2)CN(C2CCC(=O)NC2=O)C3=O)cc1 (stereo partly shown) [Compound I-72ew] please.
// result 45.1

// query Report remaining activity at up to 25 µM for Cc1cc(O)cc(C(=O)N2CCCC[C@H]2COc2ccc3c(c2)CN(C2CCC(=O)NC2=O)C3=O)c1 (stereo partly shown) [Compound I-72hi] please.
// result 86.2

// query Report remaining activity at up to 25 µM for CCc1cc(C(=O)N2CCCC[C@H]2COc2ccc3c(c2)CN(C2CCC(=O)NC2=O)C3=O)on1 (stereo partly shown) [Compound I-72ek] please.
// result 79

// query Report remaining activity at up to 25 µM for CC(C)c1cc(C(=O)N2CCCC[C@H]2COc2ccc3c(c2)CN(C2CCC(=O)NC2=O)C3=O)on1 (stereo partly shown) [Compound I-72dp] please.
// result 69.5
